Reference source for all entries: paper PMC7265341

Target: CDK19/Cyclin C (Homo sapiens, UniProt Q9BWU1)
Sequence (Q9BWU1 whole entry): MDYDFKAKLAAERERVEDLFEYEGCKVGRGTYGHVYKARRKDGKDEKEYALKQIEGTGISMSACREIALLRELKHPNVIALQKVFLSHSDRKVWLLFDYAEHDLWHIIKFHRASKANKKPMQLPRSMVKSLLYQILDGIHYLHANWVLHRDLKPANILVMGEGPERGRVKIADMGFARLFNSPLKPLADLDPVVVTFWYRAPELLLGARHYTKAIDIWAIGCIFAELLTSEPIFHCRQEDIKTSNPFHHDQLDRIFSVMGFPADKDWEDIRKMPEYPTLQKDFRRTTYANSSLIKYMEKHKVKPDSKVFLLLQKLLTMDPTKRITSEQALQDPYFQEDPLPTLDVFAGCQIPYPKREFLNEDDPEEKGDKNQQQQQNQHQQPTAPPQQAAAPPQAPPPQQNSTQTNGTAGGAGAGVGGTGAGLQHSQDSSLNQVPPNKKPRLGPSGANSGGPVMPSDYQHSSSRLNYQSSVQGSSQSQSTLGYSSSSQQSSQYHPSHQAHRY
Sequence (P24863 whole entry partner): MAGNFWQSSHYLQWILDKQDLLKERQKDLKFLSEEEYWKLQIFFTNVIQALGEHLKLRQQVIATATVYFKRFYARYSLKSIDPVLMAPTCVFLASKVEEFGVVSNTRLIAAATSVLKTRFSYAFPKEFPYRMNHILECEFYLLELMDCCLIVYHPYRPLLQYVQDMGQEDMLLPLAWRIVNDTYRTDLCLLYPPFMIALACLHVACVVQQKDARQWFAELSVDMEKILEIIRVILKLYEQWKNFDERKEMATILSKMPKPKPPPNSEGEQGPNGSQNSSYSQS
Experiment: NanoBRET live-cell target engagement, NanoLuc-CDK19/Cyclin C in HEK-293
Details: IC50 (nM), CDK19/C; experiment 1
assay endpoint: IC50 (nM)
Respond with the bare value in nM.

Prompt: Notebook entry, CDK19/Cyclin C (Homo sapiens, UniProt Q9BWU1) assay: IC50 of CN1CC[C@H](c2c(O)cc(O)c3c(=O)cc(-c4ccccc4Cl)oc23)[C@H](O)C1 = ?
Response: 19

Prompt: Param readout= IC50; system= CDK19/Cyclin C (Homo sapiens, UniProt Q9BWU1); entry= CN1CCN(Cc2ccc(NC(=O)Nc3ccc(Oc4ccnc(N)n4)cc3)cc2C(F)(F)F)CC1 ; returns value.
Response: 1.4

Prompt: Notebook: pull reported IC50 for CDK19/Cyclin C (Homo sapiens, UniProt Q9BWU1), entry COC1CN(C(=O)c2ccc3c(N)ncc(-c4ccc(-c5cnn(C)c5)cc4)c3n2)C1
Response: 9

###

Biological target: CDK19/Cyclin C (Homo sapiens)
Assay: NanoBRET live-cell target engagement, NanoLuc-CDK19/Cyclin C in HEK-293
Settings: read-out: CDK19/C Inhibition at 10µM (%), 10µM; independent experiment 1
// label = Satisfied if inhibition at 10 µM is not less than 40%, otherwise Not satisfied

In [3]: df
Out[3]:
                            chemical_smiles          group
0  CN(C)C/C=C/C(=O)Nc1ccc(C(=O)N2CCC[C@@H](Nc3ncc(Cl)c(-c4c[nH]c5ccccc45)n3)C2)cc1      Satisfied
1  CN(C)C(=O)c1cc2cnc(Nc3ccc(N4CCNCC4)cn3)nc2n1C1CCCC1  Not satisfied
2  CN1CCN(c2ccc(Nc3ncc4cc5n(c4n3)C3(CCCCC3)CNC5=O)nc2)CC1  Not satisfied
3  CN1C/C=C/CCOc2cccc(c2)-c2ccnc(n2)Nc2cccc(c2)C1      Satisfied
4  COCCN1CCN(Cc2ccc(-c3n[nH]c4c3C(=O)c3c(NC(=O)NN5CCOCC5)cccc3-4)cc2)CC1  Not satisfied
5  CC(C)CC(=O)Nc1[nH]nc2c1CN(C(=O)C1CCN(C)CC1)C2(C)C      Satisfied
6  CC[C@H](CO)Nc1nc(NCc2ccccc2)c2ncn(C(C)C)c2n1  Not satisfied

Attention now turns to another entry.
Prompt: Textbook exercise: given the entry CC(C)[C@H](CO)Nc1nc(Nc2ccc(C(=O)O)c(Cl)c2)c2ncn(C(C)C)c2n1 , state whether its inhibition at 10 µM is greater than or equal to 40%.
Response: Not satisfied

###

Recorded measurements of Inhibition at 10µM (%), one per entry
Biological target: CDK17/Cyclin Y (Homo sapiens)
Sequence (Q00537 whole entry): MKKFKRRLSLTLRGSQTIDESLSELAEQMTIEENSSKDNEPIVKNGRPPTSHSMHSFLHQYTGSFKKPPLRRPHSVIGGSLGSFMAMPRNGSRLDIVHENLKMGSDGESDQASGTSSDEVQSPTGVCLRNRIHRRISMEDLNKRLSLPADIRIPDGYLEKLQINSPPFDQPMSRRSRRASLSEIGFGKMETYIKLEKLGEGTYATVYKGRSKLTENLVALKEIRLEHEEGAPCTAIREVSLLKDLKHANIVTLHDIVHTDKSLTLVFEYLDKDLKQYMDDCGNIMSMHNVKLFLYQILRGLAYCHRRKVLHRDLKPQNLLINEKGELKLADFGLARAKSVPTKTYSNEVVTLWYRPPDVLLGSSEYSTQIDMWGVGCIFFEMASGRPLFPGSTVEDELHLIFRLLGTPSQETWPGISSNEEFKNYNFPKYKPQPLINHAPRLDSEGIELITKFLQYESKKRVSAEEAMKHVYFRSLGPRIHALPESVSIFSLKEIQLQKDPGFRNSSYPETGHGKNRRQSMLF
Sequence (Q8ND76 whole entry partner): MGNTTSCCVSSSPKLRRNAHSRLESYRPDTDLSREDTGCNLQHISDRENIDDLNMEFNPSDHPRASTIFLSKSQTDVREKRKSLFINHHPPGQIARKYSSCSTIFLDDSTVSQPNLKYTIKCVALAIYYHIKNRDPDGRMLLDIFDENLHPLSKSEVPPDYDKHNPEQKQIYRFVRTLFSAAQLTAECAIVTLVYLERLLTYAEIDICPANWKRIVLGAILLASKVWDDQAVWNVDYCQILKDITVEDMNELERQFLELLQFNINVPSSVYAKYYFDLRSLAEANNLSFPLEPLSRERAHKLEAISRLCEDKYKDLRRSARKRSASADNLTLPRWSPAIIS
Assay: NanoBRET live-cell target engagement, CDK17-NanoLuc/Cyclin Y in HEK-293
Assay type: binding
Conditions: CDK17/Y; experiment 1

Record excerpt, results attached:
>>> df
                                   molecule          assay_endpoint  measurement
0  CN1CCC(c2c(O)cc(O)c3c(=O)cc(-c4ccccc4Cl)oc23)C1CO (stereo not drawn)  Inhibition at 10µM (%)        75.5%
1  CS(=O)(=O)N1CCC(NC(=O)c2[nH]ncc2NC(=O)c2c(Cl)cccc2Cl)CC1  Inhibition at 10µM (%)        92.3%
2  CC(C)c1c2cc(-c3ccnc(N[C@H]4CC[C@H](NC5CCOCC5)CC4)n3)ccc2nn1C  Inhibition at 10µM (%)        89.7%
3  CNc1nc(C)c(-c2nc(Nc3cccc(S(N)(=O)=O)c3)ncc2F)s1  Inhibition at 10µM (%)        92.4%

Prompt: Item under review: CC(C)c1cnn2c(NCc3ccccc3-n3cccn3)nc(OC3CCCNC3)nc12 (stereo not drawn) . Reported Inhibition at 10µM (%)?
Response: 89.8%

Prompt: What value of Inhibition at 10µM (%) has been reported for the following molecule? CCn1cnc2c(Nc3cccc(Cl)c3)nc(N[C@@H]3CCCC[C@@H]3N)nc21 [CGP74514A]
Response: 79.4%
